molecular target: T1, human serum albumin (human, UniProt P02768 25-609); assay: SPR (Biacore), ratio of the off rates at the two pH
T1 construct: Bought serum albumin; also called HSA; antigen
Readout: Ratio pH 7/pH 5 (of kd)
Provide a numeric answer; units are not to be included.

Recorded Ratio pH 7/pH 5 (of kd), per entry:
- Nanobody 4B6 (VHH) VHH: KVQLVESGGGLVQVGGSLRLSCVASGRTYGGNAMAWFRQAPGKEREFVAGIDWSSENTRYTDSVKGRFTISRDNAKNTMYLQMNSLKPEDTAVYYCAAGTSWGALASRLENAYSAWGQGTQVTVSS: 3.23
- Nanobody 4C3 (VHH) VHH: EVQLVESGGGLVQAGGSLRLSCAASGRTFSSYAMAWFRQAPGEEREFVATISVSGGYTYYADSVKGRFTISRDNAKNTVYLQMNTLKPEDTAVYYCAAGDSSSWLEHMYDYWGQGTQVTVSS: 3.35
- Nanobody 4A6 (VHH) VHH: EVQLVESGGGLVQPGGSLRLSCAASPFTLDYYAIGWFRQAPGKEREGVSCSTSHGKTYHADSVKGRFTISRDNAKNTVYLQMNSLKPEDTAVYYCAAGACMGGSGYEADFGSWGQGTQVTVSS: 5.77

Okay, now this binder:
INPUT: Give the measured Ratio pH 7/pH 5 (of kd) for Nanobody 4A9 (VHH) VHH: EVQLVESGGGLVQAGGSLRLSCEASGFTLDYSGVGWFRQAPGKERELVSCISRGGDRAGYANSVKGRFTMSRDNAKNILYLQMNSLKPEDTAVYYCAATHSGSGCYDGAIDYWGKGTLVTVSS
OUTPUT: 0.54

Data credit: patent US20100216187A1
